test: pKa by titration; conditions: 2:1 dmf:h2o, titration pKa, first or only value
Listed next: entries and their corresponding pKa.

- compound: "O=C1NN(C(=O)Oc2ccc(Cl)cc2)[C@@H](c2ccccc2)[C@@H]1c1ccccc1 (relative stereo)"
  pKa: 7.8
- compound: "O=C1NN(C(=S)Nc2ccc3ccccc3c2)[C@@H](c2ccccc2)[C@@H]1c1ccccc1 (relative stereo)"
  pKa: 5.8
- compound: "CN(C)c1ccc(NC(=O)N2NC(=O)[C@@H](c3ccccc3)[C@@H]2c2ccccc2)cc1 (relative stereo)"
  pKa: 4
- compound: "O=C1NN(C(=O)NCc2ccc(Cl)c(Cl)c2)[C@@H](c2ccccc2)[C@@H]1c1ccccc1 (relative stereo)"
  pKa: 8.4

---

target: brain CCK receptor (Mus musculus, UniProt P56481); construct: from tissue; host or cells: forebrain membranes of male CF-1 mice; test: CCK receptor binding, mouse brain membranes (125I-CCK-8 sulfate); details: mouse brain membranes; read-out: Brain IC50
pIC50: −log10 of the molar value.
Listed next: entries and their corresponding pIC50.
test.readout: pIC50

- molecule: "O=C1NN(C(=O)Nc2ccc(Br)cc2)C(c2ccccc2)C1c1cccc2ccccc12 (stereo not shown) [Example 134]"
  test.readout: "pIC50"
  measurement: 7.48
- molecule: "C[C@@H](NC(=O)N1NC(=O)C(c2ccccc2)C1c1ccccc1)c1cccc2ccccc12 (stereo partly shown) [Example 104]"
  test.readout: "pIC50"
  measurement: 6.05
- molecule: "CC(C)(C)c1ccc(NC(=O)N2NC(=O)[C@@H](c3ccccc3)[C@@H]2c2ccccc2)cc1 (relative stereo) [Example 30]"
  test.readout: "pIC50"
  measurement: 7.51
- molecule: "O=C1NN(C(=O)Nc2ccccc2C(F)(F)F)[C@H](c2ccccc2)[C@H]1c1ccccc1 (relative stereo) [Example 53]"
  test.readout: "pIC50"
  measurement: 5.92
- molecule: "O=C1NN(C(=O)Nc2ccc([N+](=O)[O-])cc2)[C@@H](c2ccccc2)[C@@H]1c1ccccc1 (relative stereo) [Example 24]"
  test.readout: "pIC50"
  measurement: 6.82
- molecule: "O=C1NN(C(=O)Nc2ccc(C(F)(F)F)cc2)C(c2ccccc2Cl)C1c1ccccc1 (stereo not shown) [Example 110]"
  test.readout: "pIC50"
  measurement: 8.15
- molecule: "O=C1NN(C(=O)Nc2ccc(Br)cc2)[C@@H](c2ccccc2Cl)[C@H]1c1ccccc1Cl (relative stereo) [Example 133A]"
  test.readout: "pIC50"
  measurement: 6.44

---

biological target: brain CCK receptor (Mus musculus, UniProt P56481); construct: from tissue; host or cells: forebrain membranes of male CF-1 mice; assay: CCK receptor binding, mouse brain membranes (125I-CCK-8 sulfate); conditions: mouse brain membranes; read-out: Brain IC50
pIC50: −log10 of the molar value.
Listed next: entries and their corresponding pIC50.
test.readout: pIC50

- compound: "O=C1NN(C(=O)Nc2cccc([N+](=O)[O-])c2)[C@H](c2ccccc2)[C@H]1c1ccccc1 (relative stereo)"
  test.readout: "pIC50"
  measurement: 6.12
- compound: "O=C1NN(C(=O)Nc2ccc(Br)cc2)[C@@H](c2ccccc2)[C@@H]1c1ccccc1 (single isomer, unassigned) [Example 140]"
  test.readout: "pIC50"
  measurement: 6.43
- compound: "O=C1NN(C(=O)Nc2ccc(Br)cc2)C(c2ccccc2)C1c1cccc(Br)c1 (stereo not shown)"
  test.readout: "pIC50"
  measurement: 7.49
- compound: "COc1ccc(C2C(=O)NN(C(=O)Nc3ccc(Br)cc3)C2c2ccccc2)cc1 (stereo not shown)"
  test.readout: "pIC50"
  measurement: 6.31
- compound: "CCCc1ccc(NC(=O)N2NC(=O)[C@@H](c3ccccc3)[C@@H]2c2ccccc2)cc1 (relative stereo)"
  test.readout: "pIC50"
  measurement: 6.64
- compound: "COc1ccccc1C1C(c2ccccc2)C(=O)NN1C(=O)Nc1ccc(Br)cc1 (stereo not shown)"
  test.readout: "pIC50"
  measurement: 6.82
- compound: "O=C1NN(C(=O)Nc2cnc3ccccc3c2)[C@@H](c2ccccc2)[C@@H]1c1ccccc1 (relative stereo)"
  test.readout: "pIC50"
  measurement: 7.19

---

Molecular target: brain CCK receptor (Mus musculus, UniProt P56481)
Construct: from tissue; host or cells: forebrain membranes of male CF-1 mice
Sequence (P56481 1-453): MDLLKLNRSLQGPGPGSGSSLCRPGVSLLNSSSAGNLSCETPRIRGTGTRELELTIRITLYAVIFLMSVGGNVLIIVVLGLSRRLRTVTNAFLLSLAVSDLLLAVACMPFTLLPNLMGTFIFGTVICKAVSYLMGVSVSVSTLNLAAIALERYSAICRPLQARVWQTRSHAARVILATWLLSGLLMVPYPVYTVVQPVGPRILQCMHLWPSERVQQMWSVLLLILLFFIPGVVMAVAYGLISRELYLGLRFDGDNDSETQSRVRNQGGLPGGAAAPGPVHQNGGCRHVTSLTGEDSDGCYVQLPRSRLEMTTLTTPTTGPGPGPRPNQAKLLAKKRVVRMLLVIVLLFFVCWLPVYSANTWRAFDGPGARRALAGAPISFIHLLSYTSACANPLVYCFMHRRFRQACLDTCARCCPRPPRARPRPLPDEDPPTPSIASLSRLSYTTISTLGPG
Test: CCK receptor binding, mouse brain membranes (125I-CCK-8 sulfate)
Conditions: mouse brain membranes; read-out: Brain IC50
Listed next: entries and their corresponding IC50.

- compound: "CC(C)Oc1ccc(NC(=O)N2NC(=O)[C@@H](c3ccccc3)[C@@H]2c2ccccc2)cc1 (relative stereo)"
  readout.unit: "nM"
  IC50: 390
- compound: "O=C1NN(C(=O)Oc2ccc(Cl)cc2)[C@@H](c2ccccc2)[C@@H]1c1ccccc1 (relative stereo)"
  readout.unit: "nM"
  IC50: 4400
- compound: "O=C1NN(C(=S)Nc2ccc(C(F)(F)F)cc2)[C@H](c2ccccc2)[C@H]1c1ccccc1 (relative stereo)"
  readout.unit: "nM"
  IC50: 2200
- compound: "CC(C)c1ccc(NC(=O)N2NC(=O)C(c3ccccc3)C2c2ccccc2Cl)cc1 (stereo not shown)"
  readout.unit: "nM"
  IC50: 14

---

test: pKa by titration; conditions: 2:1 dmf:h2o, titration pKa, first or only value
Please enter yes (1) where pKa is greater than or equal to 7, and no (0) where it is lower.

- compound: "O=C1NN(C(=O)Nc2ccc(OCc3ccccc3)cc2)[C@@H](c2ccccc2)[C@@H]1c1ccccc1 (relative stereo) [Example 3]"
  assigned.label: "yes (1)"
- compound: "O=C1NN(C(=O)c2cc3ccccc3[nH]2)[C@@H](c2ccccc2)[C@@H]1c1ccccc1 (relative stereo) [Example 14]"
  assigned.label: "no (0)"
- compound: "C[C@@H](OC(=O)N1NC(=O)[C@@H](c2ccccc2)[C@@H]1c1ccccc1)c1ccccc1 (single isomer, unassigned) [Example 139A]"
  assigned.label: "yes (1)"
- compound: "O=C1NN(c2nc3ccc(Cl)cc3s2)[C@@H](c2ccccc2)[C@@H]1c1ccccc1 (relative stereo) [Example 9]"
  assigned.label: "no (0)"
- compound: "Nc1ccc(NC(=O)N2NC(=O)[C@@H](c3ccccc3)[C@@H]2c2ccccc2)cc1 (relative stereo) [Example 10]"
  assigned.label: "no (0)"

---

target: brain CCK receptor (Mus musculus, UniProt P56481); construct: from tissue; host or cells: forebrain membranes of male CF-1 mice; test: CCK receptor binding, mouse brain membranes (125I-CCK-8 sulfate); settings: mouse brain membranes; read-out: Brain IC50

- molecule: "CC(C)Oc1cccc(C2C(=O)NN(C(=O)Nc3ccc(Br)cc3)C2c2ccccc2)c1 (stereo not drawn)"
  IC50 [nM]: 150
- molecule: "O=C1NN(C(=O)Nc2ccc(OCc3ccccc3)cc2)[C@@H](c2ccccc2)[C@@H]1c1ccccc1 (relative stereo)"
  IC50 [nM]: 54
- molecule: "CCCCC1C(=O)NN(C(=O)Nc2ccc(Br)cc2)C1c1ccccc1 (stereo not drawn)"
  IC50 [nM]: 500
- molecule: "O=C1CC(c2ccc(-c3ccccc3)cc2)N(C(=O)Nc2cccc(Cl)c2Cl)N1 (stereo not drawn)"
  IC50 [nM]: 4300
- molecule: "CCCCC1C(c2ccccc2)C(=O)NN1C(=O)Nc1ccc(C(F)(F)F)cc1 (stereo not drawn)"
  IC50 [nM]: 1200
- molecule: "O=C1NN(C(=O)Nc2ccc(Cl)c(C(F)(F)F)c2)C(c2ccccc2)C1c1ccccc1Cl (stereo not drawn)"
  IC50 [nM]: 12
- molecule: "COc1ccc(NC(=O)N2NC(=O)[C@@H](c3ccccc3)[C@@H]2c2ccccc2)cc1 (relative stereo)"
  IC50 [nM]: 340
- molecule: "CCCCc1ccc(NC(=O)N2NC(=O)[C@@H](c3ccccc3)[C@@H]2c2ccccc2)cc1 (relative stereo)"
  IC50 [nM]: 440
- molecule: "COc1cccc(C2C(c3ccccc3)C(=O)NN2C(=O)Nc2ccc(C(F)(F)F)cc2)c1 (stereo not drawn)"
  IC50 [nM]: 72
- molecule: "Cc1ccc(NC(=O)N2NC(=O)[C@@H](c3ccccc3)[C@@H]2c2ccccc2)cc1 (relative stereo)"
  IC50 [nM]: 210
- molecule: "CC(C)c1ccc(NC(=O)N2NC(=O)C(c3ccccc3Cl)C2c2ccccc2)cc1 (stereo not drawn)"
  IC50 [nM]: 8
- molecule: "CC(NC(=O)N1NC(=O)[C@@H](c2ccccc2)[C@@H]1c1ccccc1)c1ccc(Br)cc1 (relative stereo)"
  IC50 [nM]: 870
- molecule: "O=C1NN(C(=O)Nc2ccc(Cl)c(C(F)(F)F)c2)C(c2ccccc2Cl)C1c1ccccc1 (stereo not drawn)"
  IC50 [nM]: 16
- molecule: "O=C1NN(c2nc3ccc(Cl)cc3s2)[C@@H](c2ccccc2)[C@@H]1c1ccccc1 (relative stereo)"
  IC50 [nM]: 3700
- molecule: "NC(=O)c1cccc(C2C(c3ccccc3)C(=O)NN2C(=O)Nc2ccc(Br)cc2)c1 (stereo not drawn)"
  IC50 [nM]: 360
